Tested on: HT-29
Experiment: Antiproliferative activity against HT29 cell line by MTS assay
Type: functional, cell-based
Conditions: Homo sapiens
metric.name: log10 IC50 (log10 of the value in µM)
Kindly note that the scale is log10 and the underlying IC50 is in µM.

Sample answers from the record:
compound	study.target	log10 IC50
COc1cc(-c2ccc[nH]2)[nH]c1/C=C1\C=Nc2ccccc21	HT-29	0.67
COc1cc(-c2ccc[nH]2)[nH]c1/C=C1\C(C)=Nc2ccccc21	HT-29	1.56
COC1=CC(c2ccc[nH]2)=N/C1=C\c1[nH]c(-c2ccc[nH]2)cc1OC	HT-29	1.13
CCC1CCCCCCCCC2=N/C(=C\c3[nH]c(-c4ccc[nH]4)cc3OC)C1=C2 (configuration not stated)	HT-29	0.23

Lab note: COc1cc(-c2ccc[nH]2)[nH]c1/C=C1\C(C)=Nc2ccc(C)cc21 gave log10 IC50 of 1.09

Lab note: COc1cc(-c2ccc[nH]2)[nH]c1/C=C1/C=C2CCCCC2=N1 gave log10 IC50 of -0.11

Lab note: CCCCCC1=C/C(=C/c2[nH]c(-c3ccc[nH]3)cc2OC)N=C1C gave log10 IC50 of -0.76
